Test system: T47D
Assay: NCI tumour cell line growth inhibition, 48 h
The source made the active and inactive calls. Rule as the data show it: active = GI50 up to about 1.1 µM and inactive = higher.
A correct response names exactly one class from True (active), False (inactive)

Solved cases (7 shown):
Cc1c2cnccc2c(C)c2c1c1ccccc1n2CCCN :: True
N/C(=N\Nc1cccc(Cl)c1)c1cccnc1 :: False
O=C1NC2(CCNCC2)Oc2ccccc21 :: False
CN1CCN(C(=S)N(C(=O)c2cccs2)c2ccccc2)CC1 :: False
C/C(=C1/N=C(c2ccccc2)OC1=O)c1ccccc1 :: False
Nc1nc(N)c2ncn(Cc3ccccc3CO)c2n1 :: False
CO/C(=N\N=C\c1cccc(Cl)c1)c1ccncc1 :: False

Query: What was the test verdict on Cc1ccc(SCN2CCCCC2)cc1.O=C(Cl)c1ccc([N+](=O)[O-])cc1 ?
Reply: False
